# Measurement target: human recombinant DPP-IV (Homo sapiens, UniProt P27487)
# Sequence (P27487 whole entry): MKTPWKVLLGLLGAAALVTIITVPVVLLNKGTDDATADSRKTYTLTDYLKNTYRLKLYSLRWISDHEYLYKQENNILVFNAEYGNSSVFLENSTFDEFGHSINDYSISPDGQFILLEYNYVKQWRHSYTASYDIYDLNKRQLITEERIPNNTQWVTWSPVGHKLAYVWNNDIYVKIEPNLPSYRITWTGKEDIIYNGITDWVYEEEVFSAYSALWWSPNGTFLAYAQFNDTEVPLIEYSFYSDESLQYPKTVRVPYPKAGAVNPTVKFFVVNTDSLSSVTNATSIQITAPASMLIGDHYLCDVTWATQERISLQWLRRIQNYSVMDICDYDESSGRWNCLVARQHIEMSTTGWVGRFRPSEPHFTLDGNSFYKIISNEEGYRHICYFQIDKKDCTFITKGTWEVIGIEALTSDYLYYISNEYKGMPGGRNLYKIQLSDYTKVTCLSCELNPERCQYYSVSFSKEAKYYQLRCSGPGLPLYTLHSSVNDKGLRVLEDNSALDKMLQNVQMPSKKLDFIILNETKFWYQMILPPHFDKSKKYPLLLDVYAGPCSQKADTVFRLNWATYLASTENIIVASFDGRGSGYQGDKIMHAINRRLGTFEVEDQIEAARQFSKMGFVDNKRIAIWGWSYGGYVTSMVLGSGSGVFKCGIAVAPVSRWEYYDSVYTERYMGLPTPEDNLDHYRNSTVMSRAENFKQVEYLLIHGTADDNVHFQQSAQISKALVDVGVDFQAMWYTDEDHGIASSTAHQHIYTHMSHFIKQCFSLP
# Assay notes: Inhibition of human recombinant DPP-IV (Gly-Pro-AMC fluorometric assay)
# Condition notes: 50 μM Gly-Pro-AMC, 15 min preincubation, 30 min at 30° C.
Structures can show the parent of a compound that is named as a salt.

Molecule | Measurement target | IC50
C#C[C@H]1CC[C@@H](C#N)N1C(=O)[C@@H](N)C1CC2CCC(C1)N2C(=O)N(C)C (stereo partly shown) [Compound 2, acetic acid salt] | human recombinant DPP-IV (Homo sapiens, UniProt P27487) | 3.3 nM
